These data points were gathered from paper PMC11452728.

- ASSAY: Pharmacokinetic study of indacaterol in rat lung tissues (MISPE, UPLC)
- Assay type: in vivo, male Wistar rats
- TEST_PARAMETERS: male, Wistar, lung, inhaled or intranasal, 150 ug; rat lungs; single inhaled capsule 150 µg; mean ± SD; read-out: t1/2 (0–24) (converted)

[
  {
    "CHEMICAL_SMILES": "CCc1cc2c(cc1CC)CC(NC[C@H](O)c1ccc(O)c3[nH]c(=O)ccc13)C2",
    "half-life / h": 48.5
  }
]

---

- ASSAY: Pharmacokinetic study of indacaterol in rat lung tissues (MISPE, UPLC)
- Type: in vivo, male Wistar rats
- TEST_PARAMETERS: male, Wistar, lung, inhaled or intranasal, 150 ug; rat lungs; single inhaled capsule 150 µg; mean ± SD
READOUT_KIND: Tmax (min)

[
  {
    "MOLECULE": "CCc1cc2c(cc1CC)CC(NC[C@H](O)c1ccc(O)c3[nH]c(=O)ccc13)C2 [indacaterol]",
    "ENDPOINT_VALUE": 4.98
  }
]
